Test system: H69 parental (H69/P) human small cell lung carcinoma cell line
Assay: Cytotoxicity, H69 parental cell line (AlamarBlue)
Format: cell-based
Settings: Homo sapiens; concentration required to give 50% cell kill; 5–6 days incubation
Method: The cytotoxicity of compounds of formula (I) was measured using the H69 parental (H69/P) human small cell lung carcinoma cell line and the drug resistant human small cell lung carcinoma cell line H69/LX4 which overexpresses P-glycoprotein (Pgp). […]
measurement.label: IC50
Please format your answer as a value with the unit trailing.

Ask | Fill blank: measured IC50 of the molecule COc1cccc2c1ccc1nc3cccc(C(=O)NC(CO)CN(C)C)c3nc12 (centres unmarked) [Compound 75] is ____.
Reply | 23 nM

Ask | So what's the measured IC50 for this one? COc1cccc2c1ccc1nc3cccc(C(=O)NCCN(C)C)c3nc12 [Compound 3]
Reply | 35 nM

Ask | Recorded IC50 for COc1cccc2c1ccc1nc3cccc(C(=O)N[C@H](C)CN(C)C)c3nc12 [Compound 78] , please?
Reply | 24 nM

Ask | Look up IC50 for this molecule: COc1cccc2c1ccc1nc3cccc(C(=O)N[C@H](CO)CN(C)C)c3nc12 [Compound 81]
Reply | 20 nM

Ask | So what's the measured IC50 for this one? COc1cc(C(=O)NCCN(C)C)c2nc3c(ccc4c(OC)cccc43)nc2c1 [Compound 94]
Reply | 19 nM

Ask | Using the record for CN(C)CCNC(=O)c1cccc2nc3ccc4c(OCC#N)cccc4c3nc12 [Compound 11] , report its IC50.
Reply | 28 nM

Ask | Field request: IC50 | item: COc1cccc2c1ccc1nc3cccc(C(=O)NC(CN(C)C)C(C)O)c3nc12 (centres unmarked) [Compound 84]
Reply | 19 nM

Ask | Need IC50 of CN(C)CCNC(=O)c1c(O)ccc2nc3ccc4c(O)cccc4c3nc12 [Compound 68] , thanks.
Reply | 19 nM

###

Tested on: amsacrine-resistant Jurkat human leukaemia cell line (JLA)
Test: Cytotoxicity, amsacrine-resistant Jurkat cell line JLA
Assay type: cell-based
Conditions: IC50 in JLA divided by IC50 in JLC; atypical drug resistance
Each entry falls in a class defined on Rf (JLA/JLC); the bands are low (below 1), medium (1 to below 2), high (2 or more)

Ask | Consider COc1cc(C(=O)NCCN(C)C)c2nc3c(ccc4c(OC)cccc43)nc2c1 [Compound 94] . To which Rf (JLA/JLC) class does it belong?
Reply | medium

Ask | Input CN(C)CCNC(=O)c1cccc2nc3ccc4cc(O)ccc4c3nc12 [Compound 2] ; output its category
Reply | high

Ask | Entry COc1cccc2c1ccc1nc3cccc(C(=O)NC(CN(C)C)C(C)O)c3nc12 (stereo not drawn) [Compound 84] belongs to which category?
Reply | high

Ask | State the band of Br.CN(C)CCNC(=O)c1cccc2nc3ccc4c(O)cccc4c3nc12 [Compound 4]
Reply | medium

Ask | Exam item: assign COc1cccc2c1ccc1nc3cccc(C(=O)NCCN(C)C)c3nc12 [Compound 3] to the correct category.
Reply | low

Ask | # bin lookup: classify COc1cccc2c1ccc1nc3cccc(C(=O)N[C@H](C)CN(C)C)c3nc12 [Compound 78] by its Rf (JLA/JLC)
Reply | low

Ask | Band of COc1cccc2c1ccc1nc3cccc(C(=O)N[C@H](CO)CN(C)C)c3nc12 [Compound 81] ?
Reply | medium

Ask | Sort CN(C)CCNc1nc2cc(O)ccc2c2c1C(=O)c1ccccc1-2 [TAS-103, reference compound] into one of the categories.
Reply | high
